# Test system: RPMI-8226
# Protocol: NCI tumour cell line growth inhibition, 48 h
Calls of active or inactive are those of the source. Rule as the data show it: active = GI50 up to about 1.1 µM and inactive = higher.
# reported GI50; entries follow

Given the molecule COc1c(-c2ccc3c(c2)OCO3)oc2cc(O)cc(O)c2c1=O , what is its reported GI50?
34 µM (inactive)

Query CC(=O)Oc1ccc(/C=C/C(=O)OCCCOC(=O)/C=C/c2ccc(OC(C)=O)c(OC(C)=O)c2)cc1OC(C)=O next
> 100 µM (inactive)

Query COc1ccc(C2=Nn3c(nnc(Cc4ccc(Cl)cc4)c3=O)SC2)cc1 next
23.1 µM (inactive)

Query CCC1(O)C(=O)OCc2c1cc1n(c2=O)Cc2cc3ccc(C=O)cc3nc2-1 (stereo not given) next
2.79 µM (inactive)

Query O=C(NCCc1ccccc1)c1c(O)nc2ccccc2c1O next
> 100 µM (inactive)

Query OC(NN=C1CCCC1)(C(F)(F)Cl)C(F)(F)Cl next
> 10 µM (inactive)

----------
# Tested on: CAKI-1
# Protocol: NCI tumour cell line growth inhibition, 48 h
The source made the active and inactive calls. Rule as the data show it: active = GI50 up to about 1.1 µM and inactive = higher.
# reported GI50; entries follow

Some molecules with known GI50 results, for comparison:
1) Oc1ccc(Br)cc1/C=N/c1ccc(Oc2ccc(/N=C/c3cc(Br)ccc3O)cc2)cc1
> 19.6 µM (inactive)
2) CC1=C(C)C(=O)OC(C(C)(O)C2(O)CCC3(O)C4CC(Cl)C5(O)C(O)C=CC(=O)C5(C)C4CCC32C)C1 (centres undefined)
12.2 µM (inactive)
3) CN(CC(=O)O)c1ncc2c(n1)-c1ccccc1CC2
> 100 µM (inactive)
4) CC(C)CCCC(C)[C@H]1CC[C@H]2n3c(nc4ccccc43)CCC[C@]12C (some centres undefined)
17.1 µM (inactive)
5) COc1ccc2c(c1)[C@@]13CCCC[C@H]1[C@@H](C2)N(C)CC3=O
28.3 µM (inactive)

Given the molecule O=C(O)CCCCCOc1cccnc1/C=N/NC1=NCCN1 , what is its reported GI50?
> 100 µM (inactive)

Query O=C(CCc1nnc(S)[nH]1)Nc1ccccc1Cl next
> 100 µM (inactive)

Query CCOC(=O)/C=C(\C(=O)OCC)n1ccc(=O)n(Cc2cn(COCCOC(C)=O)nn2)c1=O next
8.67 µM (inactive)

Query C[N+](C)(C)CC(=O)N/N=C/c1ccncc1 next
> 100 µM (inactive)

----------
# Test system: MOLT-4
# Protocol: NCI tumour cell line growth inhibition, 48 h
Active and inactive are the calls of the source. Rule as the data show it: active = GI50 up to about 1.1 µM and inactive = higher.
Value type: GI50

Given the compound CCOC(=O)/C(Br)=C1\OC(=O)c2ccccc2-c2ccccc21 , what is its reported GI50?
25.9 µM (inactive)

----------
# Test system: M14
# Protocol: NCI tumour cell line growth inhibition, 48 h
The source made the active and inactive calls. Cut-off read from the data, not from the text of the source: active = GI50 up to about 1.1 µM and inactive = higher.
Value type: GI50

Some compounds with known GI50 results, for comparison:
1) CC(=O)OC(/C=C1/C=CC(=O)O1)COC(=O)c1ccccc1 (configuration not stated)
> 31.2 µM (inactive)
2) C=CCCCC12CCCc3cccc(c31)NC2=O (configuration not stated)
14.4 µM (inactive)
3) CCOC(=O)C(=O)Nc1c(C)cccc1C
> 100 µM (inactive)

Given the compound CC[C@H]1C=CCC[C@@]2(C[C@@H]3CC[C@@H]4[C@H](C(=O)OCCCCCCCCCCCCCCCC(=O)N(CCCN)C[C@@H](O)CCN)[C@]5(CCC[C@@H](C)O5)NC(=[N+]34)N2)O1 , what is its reported GI50?
0.0249 µM (active)

Query O=C(O)C1=CN(c2ccncc2)C(c2ccco2)=CC1c1ccccc1[N+](=O)[O-] (configuration not stated) next
10.7 µM (inactive)

Query CCC(/C(=N/NC(=O)C[N+](C)(C)C)c1ccccc1)C1OC(=O)c2ccccc21 (configuration not stated) next
> 100 µM (inactive)

Query O=C(c1ccccc1Cl)n1oc2ccccc2c1=O next
> 100 µM (inactive)

Query COc1ccc(/C=C2\SC(c3ccc(OC)cc3)N(NC(=O)Cc3ccccc3)C2=O)cc1 (configuration not stated) next
> 100 µM (inactive)

Query Cc1ccc(/N=N\c2c(O)ccc3cc(S(=O)(=O)O)ccc23)cc1 next
> 100 µM (inactive)

Query COC(=O)C(Cc1ccccc1)NC(=O)C(CCC(=O)OCc1ccccc1)NC(=O)OC(C)(C)C (configuration not stated) next
> 100 µM (inactive)

Query c1ccc(CNc2c3c(nc4ccccc24)CCC3)cc1 next
13.7 µM (inactive)

Query CCCCCCCCCCCC(=O)OCC1OC(n2cc(F)c(=O)[nH]c2=O)C(N)C(OC(=O)CCCCCCCCCCC)C1O (configuration not stated) next
64.4 µM (inactive)

Query COc1ccccc1C12OC(=O)C1(C)Oc1ccccc1C2=O (configuration not stated) next
> 100 µM (inactive)

Query CSc1nc(=O)c2nc(-c3cccs3)c(-c3cccs3)nc2n1C next
> 100 µM (inactive)

----------
# System: RPMI-8226
# Protocol: NCI tumour cell line growth inhibition, 48 h
Active and inactive are the calls of the source. Rule as the data show it: active = GI50 up to about 1.1 µM and inactive = higher.
Could you please pick one outcome from this set? true (1) (active), false (0) (inactive)

1) Cn1c2ccccc2c2c(=O)[nH]c(=O)[nH]c21
false (0)
2) O=C(c1ccccc1)C1(Br)S(=O)(=O)OCCOS1(=O)=O
false (0)
3) CC(C)OC(=O)C(NC(=O)C(CC(=O)OCc1ccccc1)NC(=O)OCc1ccccc1)NC(=O)C1C(C)(C)CCC1(C)C (centres undefined)
false (0)
4) O=C(c1ccccc1)c1cc[n+](C2=C([N-]S(=O)(=O)c3ccccc3)C(=O)c3ccccc3C2=O)cc1
false (0)

For COc1ccc(-c2cc(-c3ccccc3)[nH]c(=S)c2C#N)cc1 , what call appears in the results of this test?
false (0)

Query CCO[C@@H]1C2C=CC(C2)[C@H]1[N+](=O)[O-] (some centres undefined) next
false (0)

Query O=C1Nc2cc([N+](=O)[O-])ccc2N/C1=C/C(=O)c1ccc(Cl)cc1 next
false (0)

Query O=C1CC(c2cccc([N+](=O)[O-])c2)C2(C(=O)NC(=O)NC2=O)C(c2cccc([N+](=O)[O-])c2)C1 (centres undefined) next
false (0)

Query CCCC(=O)OCC1OC(n2cc(F)c(=O)[nH]c2=O)CC1OC(=O)CCC (centres undefined) next
true (1)

----------
# System: NCI-H23
# Protocol: NCI tumour cell line growth inhibition, 48 h
Calls of active or inactive are those of the source. Rule as the data show it: active = GI50 up to about 1.1 µM and inactive = higher.
Could you please pick one outcome from this set? active, inactive

Example entries begin here.
1. O=C(NC1C2CC3CC(C2)CC1C3)/C(Cl)=C1/Sc2ccccc2NC1=O (stereo unspecified)
inactive
2. O=C1Nc2cc([N+](=O)[O-])ccc2N/C1=C/C(=O)c1ccc(Cl)cc1
inactive
3. C=C1C(=O)CC2C(=O)C(C)(O)CC/C=C(\C)C(=O)CC12 (stereo unspecified)
inactive

For CSCCCNC(=O)c1csc(-c2csc(CCNC(=O)CNC(=O)CNC(=O)OC(C)(C)C)n2)n1 , what call appears in the results of this test?
inactive

Query COc1ccc(/C=C\c2cc(OC)c(OC)c(OC)c2)cc1 next
active

Query O=c1c2cc3ccccc3n2c(=O)c2cc3ccccc3n12 next
inactive

Query CCOC(=O)/C(Br)=C1\OC(=O)c2ccccc2-c2ccccc21 next
inactive

Query O=C(CSc1nnc(-c2ccc(/N=C\c3ccc(Cl)cc3)cc2)o1)Nc1ccccc1[N+](=O)[O-] next
inactive

Query CC(C)C(=O)CC(Sc1ccc(N)cc1)c1ccccc1 (stereo unspecified) next
inactive

Query CC1CC[C@]2(C(=O)O)CCC3(C)C(=CCC4[C@@]5(C)CC[C@H](OS(=O)(=O)c6ccccc6)C(C)(C)C5CC[C@]43C)[C@@H]2[C@H]1C (stereo partly specified) next
inactive

Query COc1ccccc1/C=C1\CCC(CN2CCOCC2)C1=O (stereo unspecified) next
inactive

Query O=C(Cc1ccc([N+](=O)[O-])cc1)OCC#CCOC(=O)Cc1ccc([N+](=O)[O-])cc1 next
inactive

Query CCOC(=O)C1(CC(=O)O)CCCC1=O (stereo unspecified) next
inactive

----------
# reported GI50; entries follow
# Tested on: PC-3
# Protocol: NCI tumour cell line growth inhibition, 48 h
The source made the active and inactive calls. Cut-off read from the data, not from the text of the source: active = GI50 up to about 1.1 µM and inactive = higher.

Some compounds with known GI50 results, for comparison:
1) Nc1ccc2c3[nH]c4cc(N)ccc4cc-3nc2c1
0.224 µM (active)
2) COc1ccc(CCNC(=S)NC=C2C(=O)c3ccccc3C2=O)cc1OC
> 100 µM (inactive)
3) Ic1ccc2c(c1)N(c1ccccc1)c1cc([N-]c3ccc4nc5ccc(I)cc5[n+](-c5ccccc5)c4c3)ccc1N2
55.7 µM (inactive)

Given the compound COc1ccc2c(c1)[C@@]13CCCC[C@H]1[C@@H](C2)N(C)CC3=O , what is its reported GI50?
14.8 µM (inactive)

Query CCOC(=O)/C(C)=C\[C@@]1(C)O[C@@H](C)[C@@](C)(OC(C)=O)[C@@H]1OC(C)=O next
36.6 µM (inactive)

Query Cc1ccc(NC(=O)/C(Cc2cc(=O)oc3cc(O)ccc23)=N\NC(C)(C)C)cc1C next
> 100 µM (inactive)

Query O=C1CSC2=NCC3(NN12)c1ccccc1-c1ccccc13 next
> 10 µM (inactive)

Query O=C(Cc1ccc2ccccc2c1)NCc1ccc(C(=O)NCCc2ccccc2)cc1 next
> 100 µM (inactive)

Query O=C1/C(=C\c2cccc(Oc3ccccc3)c2)S(=O)(=O)C(c2ccccc2)N1c1cccc(Cl)c1 (centres undefined) next
> 100 µM (inactive)
